// provenance: ChEMBL document CHEMBL5357066

Test system: Pseudomonas aeruginosa
assayText: Synergistic antibacterial activity against Pseudomonas aeruginosa PAO1 assessed as novobiocin MIC at <=0.25 times MIC incubated for overnight by microbroth dilution checkerboard assay
Assay type: functional
Documented MIC across a set of compounds

Reference set (5 entries):
{"columns": ["compoundStructureString", "MIC"],
 "data": [
  ["CCCCCCCCCCNC(=N)NCCCCN", "2 µg/mL"],
  ["CCCCCCCC/C=C\\CCCCCCCCNC(=N)NCCCCN", "> 128 µg/mL"],
  ["CCCCCCCCCCNC(=N)NCCCCNC(=N)N", "4 µg/mL"],
  ["CC/C=C\\C/C=C\\C/C=C\\CCCCCCCCNC(=N)NCCCCN", "> 128 µg/mL"],
  ["CCCCCCCC/C=C\\CCCCCCCCNC(=N)NCCCCNC(=N)N", "> 128 µg/mL"]
]}

Now look at this one.
*Q* Give a short answer stating reported MIC for CCCCC/C=C\C/C=C\CCCCCCCCNC(=N)NCCCCN .
*A* > 128 µg/mL

====

Documented MIC across a set of compounds
Test system: Klebsiella pneumoniae
assayText: Synergistic antibacterial activity against […] Klebsiella pneumoniae M6 assessed as novobiocin MIC at <=0.25 times MIC incubated for overnight by microbroth dilution checkerboard assay
Type: functional
I only need the number, in µg/mL, no unit after it.

*Q* Give a short answer stating reported MIC for CCCCCCCCCCNC(=N)NCCCCNC(=N)N .
*A* 1

*Q* Give a short answer stating reported MIC for CCCCCCCC/C=C\CCCCCCCCNC(=N)NCCCCNC(=N)N .
*A* 1

*Q* Give a short answer stating reported MIC for CCCCCCCC/C=C\CCCCCCCCNC(=N)NCCCCN .
*A* 16

*Q* Give a short answer stating reported MIC for CC/C=C\C/C=C\C/C=C\CCCCCCCCNC(=N)NCCCCN .
*A* 8

*Q* Give a short answer stating reported MIC for CCCCC/C=C\C/C=C\CCCCCCCCNC(=N)NCCCCN .
*A* 64

*Q* Give a short answer stating reported MIC for CCCCCCCCCCNC(=N)NCCCCN .
*A* 4

====

Tested on: Klebsiella pneumoniae
assayText: Synergistic antibacterial activity against Klebsiella pneumoniae NCTC 13368 assessed as fold change in rifampicin MIC at <=0.25 times MIC incubated for overnight by microbroth dilution checkerboard assay relative to rifampicin alone
Type: functional

{"columns": ["compoundStructureString", "experimentalSystem", "fold change (FC)"],
 "data": [
  ["CCCCCCCCCCCCCCCCCCNC(=N)NCCCCN", "Klebsiella pneumoniae", 0],
  ["CCCCCCCC/C=C\\CCCCCCCCNC(=N)NCCCCCCCCCC", "Klebsiella pneumoniae", 0],
  ["CCCCCCCCCCCCCCCCCCNC(=O)NCCCCN", "Klebsiella pneumoniae", 0],
  ["CCCCCCCC/C=C\\CCCCCCCCNC(=N)NCCCCN", "Klebsiella pneumoniae", ">=4"]
]}

====

Documented MIC across a set of compounds
Test system: Acinetobacter baumannii
assayText: Antibacterial activity against Acinetobacter baumannii ATCC 17978 assessed as bacterial growth inhibition incubated for overnight by microbroth dilution method
Type: functional
I only need the number, in µg/mL, no unit after it.

{"columns": ["compound", "unitDescriptor", "MIC"],
 "data": [
  ["CCCCCCCCCCCCCCCCCCNC(=N)NCCCCN", "µg/mL", 16],
  ["CO[C@@H]1[C@@H](OC(N)=O)[C@@H](O)[C@H](Oc2ccc3c(O)c(NC(=O)c4ccc(O)c(CC=C(C)C)c4)c(=O)oc3c2C)OC1(C)C [NOVOBIOCIN]", "µg/mL", 8],
  ["CCCCC/C=C\\C/C=C\\CCCCCCCCNC(=N)NCCCCCCCCN", "µg/mL", 8]
]}

Now look at this one.
*Q* Give a short answer stating reported MIC for CCCCCCCCCCCCCCCCNC(=N)NCCCCN .
*A* 4

====

System: Acinetobacter baumannii
assayText: Synergistic antibacterial activity against Acinetobacter baumannii ATCC 17978 assessed as rifampicin MIC at <=0.25 times MIC incubated for overnight by microbroth dilution checkerboard assay
Type: functional
Documented MIC across a set of molecules
I only need the number, in µg/mL, no unit after it.

Reference set (5 entries):
{"columns": ["compoundStructureString", "MIC / µg/mL"],
 "data": [
  ["CCCCCCCCCCCCCCCCCCNC(=O)NCCCCN", 2],
  ["N=C(N)NCCCCCCCCNC(=N)N", 1],
  ["NCCCCN=C(N)N", 4],
  ["CCCCCCCC/C=C\\CCCCCCCCNC(=N)NCCCCCCCCCC", 8],
  ["CCCCCCCCCCCCCCCCNC(=N)NCCCCN", 0.25]
]}

Now look at this one.
*Q* Give a short answer stating reported MIC for CCCCCCCC/C=C\CCCCCCCC(=O)NCCCCN .
*A* 4

====

Test system: Pseudomonas aeruginosa
assayText: Synergistic antibacterial activity against Pseudomonas aeruginosa NCTC 13437 assessed as rifampicin MIC at <=0.25 times MIC incubated for overnight by microbroth dilution checkerboard assay
Assay type: functional
measuredAttribute: log10 of MIC (log10 of the value in µg/mL)
Friendly reminder: values = log10 of MIC, unit µg/mL.

{"columns": ["compound", "log10 of MIC"],
 "data": [
  ["N=C(N)NCCCCCCCCNC(=N)N", 1.51],
  ["CCCCCCCCCCCCCCCCNC(=N)NCCCCN", 1.20],
  ["CCCCC/C=C\\C/C=C\\CCCCCCCCNC(=N)NCCCCCCCCNC(=N)N", 1.20],
  ["CCCCCCCCCCCC(=O)NCCCCN", 1.51],
  ["CCCCCCCCCCCCCCCCCCNC(=O)NCCCCN", 1.20],
  ["CC/C=C\\C/C=C\\C/C=C\\CCCCCCCCNC(=N)NCCCCN", 1.20],
  ["CCCCCCCC/C=C\\CCCCCCCCNC(=N)NCCCCCCCCCC", 1.81],
  ["CCCCCCCCCCCC(=O)NCCCC", 1.51]
]}

*Q* Give a short answer stating reported log10 of MIC for CCCCCCCCCCNC(=N)NCCCC .
*A* 1.20

*Q* Give a short answer stating reported log10 of MIC for CCCCC/C=C\C/C=C\CCCCCCCCNC(=N)NCCCCCCCCN .
*A* 1.20

*Q* Give a short answer stating reported log10 of MIC for CCCCC/C=C\C/C=C\CCCCCCCCNC(=N)NCCCCNC(=N)N .
*A* 0.60

*Q* Give a short answer stating reported log10 of MIC for CCCCCCCCCCCCCCCCCCNC(=N)NCCCCN .
*A* 1.51

*Q* Give a short answer stating reported log10 of MIC for CCCCCCCCCCNC(=N)NCCCCN1CCCC1 .
*A* 0.30

*Q* Give a short answer stating reported log10 of MIC for CCCCCCCC/C=C\CCCCCCCCNC(=N)NCCCCNC(=N)N .
*A* 1.20

*Q* Give a short answer stating reported log10 of MIC for CCCCC/C=C\C/C=C\CCCCCCCCNC(=N)NCCCCN .
*A* 1.20

*Q* Give a short answer stating reported log10 of MIC for CCCCCCCCCCNC(=N)NCCCC(=O)O .
*A* 1.51

*Q* Give a short answer stating reported log10 of MIC for CCCCCCCC/C=C\CCCCCCCCNC(=N)NCCCCN .
*A* 1.20

*Q* Give a short answer stating reported log10 of MIC for CCCCCCCCCCNC(=N)NCCCCN(C)C .
*A* -0.30

*Q* Give a short answer stating reported log10 of MIC for NCCCCN=C(N)N [AGMATINE] .
*A* 1.51

*Q* Give a short answer stating reported log10 of MIC for CCCCCCCC/C=C\CCCCCCCC(=O)NCCCCN .
*A* 1.81

*Q* Give a short answer stating reported log10 of MIC for NCCCCCCCCN=C(N)N .
*A* 1.51

*Q* Give a short answer stating reported log10 of MIC for CCCCCCCCCCNC(=N)NCCCCCCCCCC .
*A* 1.81

====

Test system: Klebsiella pneumoniae
assayText: Antibacterial activity against Klebsiella pneumoniae M6 assessed as bacterial growth inhibition incubated for overnight by microbroth dilution method
Rule: measured MIC below 20 µg/mL gets condition met; anything equal to or greater than 20 µg/mL gets condition not met.

{"columns": ["compoundStructureString", "classLabel"],
 "data": [
  ["N=C(N)NCCCCCCCCNC(=N)N", "condition not met"],
  ["CCCCC/C=C\\C/C=C\\CCCCCCCCNC(=N)NCCCCN", "condition met"],
  ["CCCCC/C=C\\C/C=C\\CCCCCCCCNC(=N)NCCCCCCCCNC(=N)N", "condition met"]
]}

*Q* Answer whether the compound NCCCCCCCCN=C(N)N has MIC strictly less than 20 µg/mL
*A* condition not met

*Q* Answer whether the compound CCCCCCCC/C=C\CCCCCCCCNC(=N)NCCCCCCCCNC(=N)N has MIC strictly less than 20 µg/mL
*A* condition not met

*Q* Answer whether the compound CCCCCCCC/C=C\CCCCCCCCNC(=N)NCCCCCCCCNC(=N)NCCCCCCCC/C=C\CCCCCCCC has MIC strictly less than 20 µg/mL
*A* condition not met

*Q* Answer whether the compound CCCCCCCCCCCCNC(=N)NCCCCN has MIC strictly less than 20 µg/mL
*A* condition not met

*Q* Answer whether the compound CO[C@@H]1[C@@H](OC(N)=O)[C@@H](O)[C@H](Oc2ccc3c(O)c(NC(=O)c4ccc(O)c(CC=C(C)C)c4)c(=O)oc3c2C)OC1(C)C has MIC strictly less than 20 µg/mL
*A* condition not met
